Test system: UISO
test_summary: qHTS assay to identify novel small-molecules to repurpose for Merkel cell carcinoma treatment (AID 1296009); also: nearly all actives have a fitted effect of over 60% in size
cond: MCC and control cell lines, CellTiter-Glo viability, 72 h; series mostly up to 46 µM
Text: MCC is a rare and aggressive neuroendocrine skin cancer with limited treatment options. Approximately 80% of MCCs have the Merkel cell polyomavirus (MCPyV) DNA integrated into the host genome (virus-positive: VP-MCC) and viral oncogenes drive oncogenesis. The remaining MCCs are virus-negative (VN-MCC) and are caused by UV mutagenesis. […] Using cell viability as a readout (CellTiter-Glo assay) we found both overlapping and distinct drugs that can be repurposed for the treatment of VP-MCC and VN-MCC. […]
Results filed as inconclusive are left out. Active and inactive are the calls of the source. Calls follow the shape of the dose curve; as a rule, active = well fitted inhibition curve with a large enough effect; inconclusive = small, poorly fitted or top-dose-only effect; inactive = flat fitted curve, though single readings scatter.
Hi! Could you answer with just one of these? active, inactive

What outcome does the record of this test show for CCc1c2c(nc3ccc(OC(=O)N4CCC(N5CCCCC5)CC4)cc13)-c1cc3c(c(=O)n1C2)COC(=O)[C@]3(O)CC ?
active

What outcome does the record of this test show for CCOC(=O)c1ccc(C#Cc2ccc3c(c2)C(C)(C)CCS3)nc1 ?
inactive

What outcome does the record of this test show for CCn1cc(C(=O)O)c(=O)c2cc(F)c(N3CCNCC3)nc21 ?
inactive

What outcome does the record of this test show for OC(Cn1cncn1)(Cn1cncn1)c1ccc(F)cc1F ?
inactive

What outcome does the record of this test show for CNCC[C@H](Oc1cccc2ccccc12)c1cccs1 ?
active

What outcome does the record of this test show for O=C(O)C1CCCN(CCC=C(c2ccccc2)c2ccccc2)C1 (centres undefined) ?
inactive

What outcome does the record of this test show for Cc1cc(NS(=O)(=O)c2ccc(N)cc2)no1 ?
inactive

What outcome does the record of this test show for CS(=O)(=O)c1ccc([C@@H](O)[C@@H](CO)NC(=O)C(Cl)Cl)cc1 ?
inactive

What outcome does the record of this test show for O=NN(CCCl)C(=O)NC1CCCCC1 ?
inactive
